A short record of IC50 observed with Epidermal growth factor receptor (Homo sapiens) follows.
Sequence (P00533 whole entry): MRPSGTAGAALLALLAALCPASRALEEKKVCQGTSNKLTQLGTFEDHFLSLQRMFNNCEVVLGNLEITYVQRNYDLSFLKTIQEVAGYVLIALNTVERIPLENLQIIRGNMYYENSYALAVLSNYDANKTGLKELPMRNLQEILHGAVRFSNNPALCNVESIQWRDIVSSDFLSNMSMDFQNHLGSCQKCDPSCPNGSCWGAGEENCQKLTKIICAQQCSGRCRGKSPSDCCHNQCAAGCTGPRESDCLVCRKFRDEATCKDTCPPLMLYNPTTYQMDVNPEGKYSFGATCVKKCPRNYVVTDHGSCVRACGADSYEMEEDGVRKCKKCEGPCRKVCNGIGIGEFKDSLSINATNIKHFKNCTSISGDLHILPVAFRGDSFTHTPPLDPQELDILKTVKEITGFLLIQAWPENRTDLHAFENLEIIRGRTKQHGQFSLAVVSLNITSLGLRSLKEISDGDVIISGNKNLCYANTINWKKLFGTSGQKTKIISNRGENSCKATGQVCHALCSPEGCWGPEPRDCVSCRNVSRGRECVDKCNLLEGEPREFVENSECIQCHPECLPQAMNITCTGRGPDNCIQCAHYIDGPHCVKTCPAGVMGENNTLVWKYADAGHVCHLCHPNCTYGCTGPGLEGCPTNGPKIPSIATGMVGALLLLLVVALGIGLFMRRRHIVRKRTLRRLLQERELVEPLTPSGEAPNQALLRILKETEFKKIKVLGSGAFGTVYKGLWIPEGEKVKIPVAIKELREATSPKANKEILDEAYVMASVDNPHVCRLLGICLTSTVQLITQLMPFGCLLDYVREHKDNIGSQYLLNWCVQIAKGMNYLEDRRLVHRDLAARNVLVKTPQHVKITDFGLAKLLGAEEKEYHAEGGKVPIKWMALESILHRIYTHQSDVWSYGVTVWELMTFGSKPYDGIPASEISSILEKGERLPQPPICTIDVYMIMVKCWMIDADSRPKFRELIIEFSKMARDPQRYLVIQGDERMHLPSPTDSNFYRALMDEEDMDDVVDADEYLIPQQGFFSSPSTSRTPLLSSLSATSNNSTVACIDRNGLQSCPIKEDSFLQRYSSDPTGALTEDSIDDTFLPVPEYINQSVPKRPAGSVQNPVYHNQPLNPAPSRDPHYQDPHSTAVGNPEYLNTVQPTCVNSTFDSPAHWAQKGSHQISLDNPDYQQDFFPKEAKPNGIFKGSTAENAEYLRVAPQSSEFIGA
One number for each entry, in nM.

Here's what some known entries look like.
>  <MOLECULE SMILES>
C#Cc1cccc(Nc2ccnc3cc(OC)c(OC)cc23)c1

>  <TGT>
Epidermal growth factor receptor (Homo sapiens)

>  <IC50 / nM>
42

$$$$
>  <MOLECULE SMILES>
COc1cc2nccc(Nc3ccc(OCc4cccc(F)c4)c(Cl)c3)c2cc1OC

>  <TGT>
Epidermal growth factor receptor (Homo sapiens);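 further: human A431 cells pretreated 90 min, then EGF stimulated, sandwich ELISA measured decrease in EGF-induced receptor autophosphorylation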

>  <IC50 / nM>
1700

$$$$

List the reported IC50 of each compound below.
1. COc1cc2ncc(C#N)c(Nc3cccc(Br)c3)c2cc1OC
2. COCCOc1cc2ncnc(Nc3cc(OC)c(OC)c(OC)c3)c2cc1OCCOC
3. COc1cc(N(C)c2ccnc3ccc(C(F)(F)F)cc23)cc(OC)c1OC

[90, 2400, 2200]

----------
assay: cells; assay type: functional, cell-based; details: Homo sapiens, UCH1, 72 h
Description: Antiproliferative activity against human UCH1 cells measured after 72 hrs by alamar blue assay
QUANTITY KIND: IC50 (µM)
One number for each entry, in µM.

>  <MOLECULE>
C#Cc1cccc(Nc2ccnc3cc(OC)c(OC)cc23)c1

>  <OBSERVED RESULT>
2.1

$$$$
>  <MOLECULE>
COc1cc(Nc2ncnc3ccc(C(F)(F)F)cc23)cc(OC)c1OC

>  <OBSERVED RESULT>
50

$$$$
>  <MOLECULE>
C=CC(=O)Nc1cc2c(Nc3ccc(F)c(Cl)c3)ncnc2cc1OCCCN1CCOCC1

>  <OBSERVED RESULT>
0.08

$$$$
>  <MOLECULE>
COc1cc2nccc(Nc3cc(OC)c(OC)c(OC)c3)c2cc1OC

>  <OBSERVED RESULT>
11

$$$$
>  <MOLECULE>
COc1cc2ncc(C#N)c(Nc3cccc(Br)c3)c2cc1OC

>  <OBSERVED RESULT>
8.8

$$$$
>  <MOLECULE>
COc1cc2/c(=N/c3ccc(Br)cc3F)nc[nH]c2cc1OCC1CCN(C)CC1

>  <OBSERVED RESULT>
1

$$$$
>  <MOLECULE>
C=CC(=O)N1CCC(Oc2cc3c(Nc4ccc(Cl)c(Cl)c4F)ncnc3cc2OC)CC1

>  <OBSERVED RESULT>
0.11

$$$$
>  <MOLECULE>
CN(C)C/C=C/C(=O)Nc1cc2c(Nc3ccc(F)c(Cl)c3)ncnc2cc1O[C@H]1CCOC1

>  <OBSERVED RESULT>
0.1

$$$$
>  <MOLECULE>
COc1cccc(Nc2ncnn3ccc(CN4CC[C@@H](N)[C@H](O)C4)c23)c1

>  <OBSERVED RESULT>
0.53

$$$$
>  <MOLECULE>
C#Cc1cccc(Nc2c(C#N)cnc3cc(OC)c(OC)cc23)c1

>  <OBSERVED RESULT>
17

$$$$

Look up IC50 for the entries below, preserving their order.
1. CCOc1cc2ncc(C#N)c(Nc3ccc(OCc4ccccn4)c(Cl)c3)c2cc1NC(=O)/C=C/CN(C)C
2. COc1cc2ncnc(Nc3cc(OC)c(OC)c(OC)c3)c2cc1OC
3. CNC(=O)CN1CCC(Oc2cc3c(Nc4cccc(Cl)c4F)ncnc3cc2OC)CC1
4. COc1cc2c(Nc3ccc(Cl)c(Cl)c3F)ncnc2cc1OC[C@@H]1C[C@@H]2CN(C)C[C@@H]2C1
5. COc1cc2nccc(Nc3cccc(Br)c3)c2cc1OC

1. 5.5
2. 7.3
3. 0.42
4. 0.15
5. 3.6
